- target-under-test: HRgpA-6H (Porphyromonas gingivalis) (UniProt P28784)
- protocol-details: ELISA, coated HRgpA-6H
Exercise: for every item that follows, state its recorded OD450 nm.
Numbers only.

Example entries begin here.
binder="KB001 mouse Fab VL A25V (Fab, V domains shown) VH: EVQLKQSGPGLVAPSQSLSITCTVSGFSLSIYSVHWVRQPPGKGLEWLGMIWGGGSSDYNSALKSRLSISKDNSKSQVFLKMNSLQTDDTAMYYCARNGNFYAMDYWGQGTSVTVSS VL: QIVLTQSPAIMSASLGERVTMTCTVSSSVSSSFLHWYQQKPGSSPQLWIYSTSNLASGVPARFSGSGSGTSYSLTISSMEAEDAATYYCHQYHHSPYIYTFGGGTKLEIK" measured_metric="OD450 nm" reading=0.768
binder="KB001 mouse Fab VH S65V (Fab, V domains shown) VH: EVQLKQSGPGLVAPSQSLSITCTVSGFSLSIYSVHWVRQPPGKGLEWLGMIWGGGSSDYNSALKVRLSISKDNSKSQVFLKMNSLQTDDTAMYYCARNGNFYAMDYWGQGTSVTVSS VL: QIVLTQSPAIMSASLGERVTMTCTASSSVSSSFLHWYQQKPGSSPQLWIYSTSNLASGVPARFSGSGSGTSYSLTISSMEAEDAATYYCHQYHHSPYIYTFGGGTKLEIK" measured_metric="OD450 nm" reading=0.867

Now let's try a different one.
Entry KB001 mouse Fab VL T24K/R18S (Fab, V domains shown) VH: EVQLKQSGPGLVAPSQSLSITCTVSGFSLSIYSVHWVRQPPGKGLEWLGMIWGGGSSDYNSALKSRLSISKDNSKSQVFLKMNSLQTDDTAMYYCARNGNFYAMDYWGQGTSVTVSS VL: QIVLTQSPAIMSASLGESVTMTCKASSSVSSSFLHWYQQKPGSSPQLWIYSTSNLASGVPARFSGSGSGTSYSLTISSMEAEDAATYYCHQYHHSPYIYTFGGGTKLEIK has what OD450 nm?
0.761

Hey, just so you know, these numbers are from patent US20240400654A1.
